- Test system: UO-31 renal
- assay-text: NCI-60 one-dose screen, 48 h
- cond: 10 µM unless noted
Compounds without any hit were thinned out: in the full panel of roughly 83,000, 20% have a hit. Active and inactive are the calls of the source. The calls were made as follows: active = growth percent below 10; inactive = the rest.
Your answer must be one of the following: active, inactive

// outcome(item) with item = c1cc(C2CCCCC2)ccc1OCCCCCCN1CCNCC1 inactive

// outcome(item) with item = CCCCCCCCCCCCOC(=O)/C=C\C(=O)NC(N)=O inactive

// outcome(item) with item = CC(=O)c1cc(Nc2cc(C)nc(N)n2)cc(C(C)=O)c1 inactive

// outcome(item) with item = C/C=C/C/C=C/[C@H](C)C[C@H](O)[C@@H]1C[C@@H]2O[C@H]2/C=C/[C@@H]2OC(C)(C)O[C@H]2/C=C/C[C@H](C)CC(=O)O1 active

// outcome(item) with item = CCC(C)C1NC(=O)C(CC(C)C)NC(=O)C(C)NC(=O)C(C(C)C)NC(=O)C(CCCCN)NC(=O)C(CC(C)C)NC(=O)C(C(C)C)NC(=O)[C@H](C)NC(=O)C(C(C)CC)NC(=O)C(CCCN=C(N)N)NC(=O)C(CCCCN)NC(=O)C(CCCN=C(N)N)NC(=O)C(CCCCN)NC(=O)C([C@H](C)CC)NC(=O)C(CCCCN)NC1=O (stereo partly specified) inactive

// outcome(item) with item = CC(=N\N=C(N)N)/C(=N/N=C(N)N)c1ccccc1 inactive

// outcome(item) with item = C=C[C@]1(C)C=C2C(=O)[C@@]3(O)OC[C@@]4(CCCC(C)(C)C43O)C2(O)C(O)C1 (stereo partly specified) inactive

// outcome(item) with item = Nc1nc2cc(O)ccc2n2cc3c(F)cccc3c12 active

// outcome(item) with item = CC(C)CCCCCOC(=O)c1ccccc1SSc1ccccc1C(=O)OCCCCCC(C)C inactive

// outcome(item) with item = CC(=O)OC1/C=C\CC/C=C\C1 (stereo unspecified) inactive

// outcome(item) with item = O=c1oc2ccc3ccccc3c2cc1-c1ccnc2[nH]c(=S)[nH]c(=O)c12 inactive

* * *

I'd appreciate it if you could supply growth values for the items below.
- Tested on: NCI-H226 lung
- assay-text: NCI-60 one-dose screen, 48 h (100 = growth as untreated, 0 = no growth, -100 = all killed)
- cond: 10 µM unless noted
This is part of a sample that, as a whole, favours compounds with a hit. Of some 83,000 tested, about 20% had one in any assay. The source made the active and inactive calls. How the source made its calls: active means growth percent below 10; inactive means the rest.

Could you share which growth value was measured for O=C(Nn1cnc2ccccc21)N1CCCC1 ? 105% (inactive)

Could you share which growth value was measured for O=c1[nH]c(=S)[nH]c(O)c1/C=C1\C=Nc2ccccc21 ? 90.5% (inactive)

Could you share which growth value was measured for CCCCCCCCCCCCCCCCCC1=NCCN1CS(=O)(=O)O ? 87.5% (inactive)

Could you share which growth value was measured for O=C(Nc1ccc(-n2cc(-c3ccncc3)c(-c3ccc(Cl)c(O)c3)n2)cc1)c1ccc(Cl)c(Cl)c1 ? 107% (inactive)

Could you share which growth value was measured for Cc1ccc(C(C)C)c(OCc2ccc(C(=O)N/N=C/c3cccc(O)c3O)cc2)c1 ? 68.1% (inactive)

Could you share which growth value was measured for COc1ccc2c(c1)/C(=C/c1c(-c3cc(OC)c(OC)c(OC)c3)nc3sccn13)C(=O)N2 ? 97% (inactive)

Could you share which growth value was measured for NC(N)=N/N=C/c1cccc(Br)c1 ? 88.7% (inactive)

Could you share which growth value was measured for Ic1ccc(SSc2ccc(I)cc2)cc1 ? 90.6% (inactive)

Could you share which growth value was measured for COc1nc(OC)nc(-c2cc(-c3cc(OC)c(OC)c(OC)c3)no2)n1 ? 92.8% (inactive)

Could you share which growth value was measured for COc1cc(-c2c3c(cn2CCN2CCCCC2)-c2oncc2CC3)cc(OC)c1OC ? 90.2% (inactive)

Could you share which growth value was measured for CC(=O)CC(=O)OC/C=C(/C)CCC=C(C)C ? 101% (inactive)

Could you share which growth value was measured for COc1ccc2cnc(N)c(C#Cc3cc(C(=O)Nc4ccc(CN5CCN(C)CC5)c(C(F)(F)F)c4)cnc3C)c2c1 ? 26.8% (inactive)

Could you share which growth value was measured for CC(=O)Nc1ccc(CC#N)cc1Br ? 96.4% (inactive)

Could you share which growth value was measured for NNC(=O)CNc1ccc2ccccc2c1 ? 109% (inactive)

Could you share which growth value was measured for CC1(C)CC(=O)C2=C(C1)Oc1nc(N)c(C#N)c(N)c1C2c1ccc(F)cc1 (stereo unspecified) ? 106% (inactive)

Could you share which growth value was measured for CCOC(=O)CSSCC(=O)OCC ? 123% (inactive)

* * *

- Tested on: MDA-MB-435 melanoma
- assay-text: NCI-60 one-dose screen, 48 h
- cond: 10 µM unless noted
- Description: Growth inhibition of the MDA-MB-435 human Melanoma tumor cell line is measured as a screen for anti-cancer activity. Cells are grown in 96 well plates and exposed to the test compound for 48 hours. Compounds are tested at a single concentration, which is 10^-5 M for most compounds. The reported endpoint is percent growth (GI% or GIPRCNT), where numbers from 0 - 100% represent growth inhibition, and numbers from -100% - 0 represent cell death. […]
The panel holds about 83,000 compounds, 20% with a hit somewhere; the sample as a whole holds those more often. Active and inactive are the calls of the source. The calls were made as follows: active = growth percent below 10; inactive = the rest.
Your answer must be one of the following: t = active, f = inactive

// outcome(item) with item = CCCCCCCCC(=O)Nc1ccc(O)cc1 f

// outcome(item) with item = CC(=O)c1ccc2c(c1)c1ccccc1n2C f

// outcome(item) with item = O=c1[nH]c2cc(O)ccc2n2cc3c(F)cccc3c12 t

// outcome(item) with item = CCCC(=O)NNc1[nH]c(-c2cc(OC)c(OC)c(OC)c2)cc1C(=O)OCC f

// outcome(item) with item = c1ccc(C(=NNc2nc3ccccc3o2)c2ccccn2)nc1 f

* * *

- Tested on: SNB-19 CNS
- assay-text: NCI-60 one-dose screen, 48 h (100 = growth as untreated, 0 = no growth, -100 = all killed)
- cond: 10 µM unless noted
- Description: Growth inhibition of the SNB-19 human tumor cell line is measured as a screen for anti-cancer activity. Cells are grown in 96 well plates and exposed to the test compound for 48 hours. Compounds are tested at a single concentration, which is 10^-5 M for most compounds. The reported endpoint is percent growth (GI% or GIPRCNT), where numbers from 0 - 100% represent growth inhibition, and numbers from -100% - 0 represent cell death. For example, a value of 40 represents 60% growth inhibition. […]
The panel holds about 83,000 compounds, 20% with a hit somewhere; the sample as a whole holds those more often.
readout: growth (%)
Form entry: value (%) — number only.

Could you share which growth value was measured for OC(c1ccccc1)(c1ccccc1)C(F)(F)F ? 113

Could you share which growth value was measured for COc1ccc(C(O)(c2ccccc2)C(C(=O)O)c2ccccc2)cc1 (stereo unspecified) ? 96.9

Could you share which growth value was measured for NC(CSC(c1ccccc1)(c1ccccc1)c1ccccc1)C(=O)NCC(=O)O (stereo unspecified) ? 85.7

Could you share which growth value was measured for CNc1nc2ncn(C)c2c(=O)[nH]1 ? 113

Could you share which growth value was measured for [2H]c1nc(=Nc2cc(NC(=O)C=C)c(N(C)CCN(C)C)cc2OC)[nH]c(-c2cn(C([2H])([2H])[2H])c3ccccc23)c1[2H] ? 55.8

Could you share which growth value was measured for COC(=O)c1ccc2[nH]c(O)c(C(=Nc3ccc(N(C)C(=O)CN4CCN(C)CC4)cc3)c3ccc(OC)cc3)c2c1 ? 32.4

* * *

- Test system: M14 melanoma
- assay-text: NCI-60 one-dose screen, 48 h (100 = growth as untreated, 0 = no growth, -100 = all killed)
- cond: 10 µM unless noted
Compounds without any hit were thinned out: in the full panel of roughly 83,000, 20% have a hit.
readout: growth (%)
Form entry: value (%) — number only.

Could you share which growth value was measured for C=C(C)C(C(=O)OCC)(C(=O)OCC)C(C)C ? 110

Could you share which growth value was measured for CNCCCNCCCCNCCCN1C(=O)c2ccc3c4c(ccc(c24)C1=O)C(=O)N(CCCNCc1ccccc1OC)C3=O ? 24

Could you share which growth value was measured for CCOC(=O)c1ccc2n1CCCc1cnc(NC(C)=O)nc1-2 ? 99.9

Could you share which growth value was measured for O=C1CCNC1 ? 105

Could you share which growth value was measured for N=C(N)c1ccc(-c2ccc(-c3cc(Cl)cc(Cl)c3)s2)cc1 ? -85.3

Could you share which growth value was measured for COc1cc2oc(-c3ccc(NC(=O)c4ccccc4)cc3)cc(=O)c2c(OC)c1OC ? 92.8

* * *

I'd appreciate it if you could supply growth values for the items below.
- System: EKVX NSCLC
- assay-text: NCI-60 one-dose screen, 48 h (100 = growth as untreated, 0 = no growth, -100 = all killed)
- cond: 10 µM
About 83,000 compounds went through this panel and 20% of them were active in at least one assay; those are over-represented in the sample as a whole.
Form entry: value (%) — number only.

Could you share which growth value was measured for CCOC(=O)c1c(C)oc2ncnc(Nc3ccc(C(=O)NCCc4ccccc4)cc3)c12 ? 90.4

Could you share which growth value was measured for N#Cc1ccc(NC2c3ccccc3CC2O)cc1 (stereo unspecified) ? 114

Could you share which growth value was measured for O=S(=O)(O)CCI ? 119

Could you share which growth value was measured for CC1=C(C)C(=O)C(C(C)C2=C(C)C(=O)C(C)=C(C)C2=O)=C(C)C1=O ? 61.7

Could you share which growth value was measured for COCC(=O)NNc1[nH]c(-c2ccc(OC)cc2)cc1C#N ? 112

Could you share which growth value was measured for c1ccc(Nc2ncc3c(n2)-c2cccn2CC3)cc1 ? 66.2
